Reference source for all entries: ChEMBL document CHEMBL2321868

# measurement-target: Beta-secretase 1 (Homo sapiens, UniProt P56817)
# Sequence (P56817 whole entry): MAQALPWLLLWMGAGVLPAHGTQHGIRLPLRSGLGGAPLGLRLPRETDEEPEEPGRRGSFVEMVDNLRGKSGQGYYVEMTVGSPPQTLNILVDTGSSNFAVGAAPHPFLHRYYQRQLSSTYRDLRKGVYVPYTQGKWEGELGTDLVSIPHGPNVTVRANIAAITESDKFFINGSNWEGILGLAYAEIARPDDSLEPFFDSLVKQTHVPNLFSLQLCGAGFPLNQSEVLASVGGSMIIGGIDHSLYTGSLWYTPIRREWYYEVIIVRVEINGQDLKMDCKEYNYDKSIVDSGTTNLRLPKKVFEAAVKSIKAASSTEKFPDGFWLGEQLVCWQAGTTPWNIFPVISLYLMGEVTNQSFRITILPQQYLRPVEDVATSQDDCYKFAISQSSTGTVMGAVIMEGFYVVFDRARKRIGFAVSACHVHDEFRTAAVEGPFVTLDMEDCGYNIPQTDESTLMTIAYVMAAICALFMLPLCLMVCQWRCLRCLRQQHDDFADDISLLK
# test-summary: Inhibition of human recombinant BACE-1 expressed in baculovirus-infected insect sf9 cells using RE( EDANS)-EVNLDAEF-K(DABSYL)-R as substrate incubated for 1 hr prior to substrate addition measured after 1 hr by FRET-based enzymatic assay
measured-quantity: IC50

QUERY: Consider the molecule COCCCOc1cc(C(=O)N(C[C@@H]2CNC[C@H]2Cc2ccccc2)C(C)C)ccc1OC.Cl tested on Beta-secretase 1 (Homo sapiens, UniProt P56817); state its IC50.
RESULT: > 30 µM

----------
IC50 overview
# measurement-target: UniProt P00797
# Sequence (P00797 whole entry): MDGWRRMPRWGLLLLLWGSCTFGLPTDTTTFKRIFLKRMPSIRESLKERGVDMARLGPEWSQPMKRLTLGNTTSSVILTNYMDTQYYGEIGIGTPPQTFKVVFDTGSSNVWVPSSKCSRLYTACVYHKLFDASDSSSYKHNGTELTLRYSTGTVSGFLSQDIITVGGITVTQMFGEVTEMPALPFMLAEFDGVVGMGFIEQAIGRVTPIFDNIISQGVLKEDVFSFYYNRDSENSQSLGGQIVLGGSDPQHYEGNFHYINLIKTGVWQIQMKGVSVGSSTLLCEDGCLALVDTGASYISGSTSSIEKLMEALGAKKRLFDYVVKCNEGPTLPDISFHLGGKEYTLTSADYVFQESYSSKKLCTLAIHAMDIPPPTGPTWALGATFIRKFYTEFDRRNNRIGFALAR
# test-summary: Inhibition of human recombinant renin expressed in CHO cells using RE(EDANS)IHPFHLVIHTK(Dabcyl)R as substrate incubated for 1 hr prior to substrate addition measured after 2 hrs by FRET-based enzymatic assay
I only need the number, in µM, no unit after it.

molecule	IC50 [µM]
Clc1ccc(N(C[C@@H]2CNC[C@H]2Cc2ccccc2)c2ccccc2)cc1	7.6
Clc1ccc(N(Cc2ccccc2)CC2CNCC2Cc2ccccc2)cc1 (racemic)	4.1

QUERY: Please look at this molecule and report its IC50: Clc1ccc(N(CC2CNCC2Cc2ccccc2)c2ccccc2)cc1 (racemic)
RESULT: 14
